Cited source for all entries: paper PMC5851678

target: pEF-TuT382; construct: gene tufA; full-length His-tagged EF-Tu phosphorylated at T382 in vitro by toxin Doc with ATP, repurified by SEC; experiment: ITC; type: binding, Escherichia coli; conditions: 50 mM Hepes pH 7.4, 40 mM NH4Cl, 2 mM MgCl2, 1 mM TCEP, nucleotide-free protein; phosphorylated at T382; read-out: Kd
parameter_measured: Kd (nM)
Use nM as the unit, but write only the number.

Let me know recorded Kd for Nc1nc2c(ncn2[C@@H]2O[C@H](COP(=O)(O)OP(=O)(O)OP(O)(O)=S)[C@@H](O)[C@H]2O)c(=O)[nH]1 [GTPγS, guanosine-5′-(γ-thio)-triphosphate] , thanks.
90
